Hi there, I'd appreciate the recorded Log RAI for every entry that follows.
assay: Bradykinin potentiating activity was determined as the activity index by PLS model
Peptide text beside a SMILES is read from it.
Numbers only.

Example entries and their recorded answers appear below.
C[C@H](NC(=O)[C@H](C)NC(=O)[C@H](CCC(=O)O)NC(=O)CN)C(=O)N[C@@H](CCCCN)C(=O)O (H-GEAAK-OH) :: -0.52
CC(C)[C@H](N)C(=O)N[C@@H](C)C(=O)N[C@@H](C)C(=O)N[C@@H](C)C(=O)N[C@@H](CCCCN)C(=O)O (H-VAAAK-OH) :: -0.1

Next item in the queue.
[in] Requested field: Log RAI. Item: CC(C)[C@H](N)C(=O)N[C@@H](C)C(=O)N[C@@H](Cc1c[nH]c2ccccc12)C(=O)N[C@@H](C)C(=O)N[C@@H](C)C(=O)O (H-VAWAA-OH)
[out] 1.43

###

experiment: Bradykinin potentiating activity was determined as the activity index by PLS model
Peptide text beside a SMILES is read from it.
Hi there, I'd appreciate the recorded Log RAI for every entry that follows.
Give bare numbers.

Example entries and their recorded answers appear below.
C[C@H](N)C(=O)N[C@@H](C)C(=O)N[C@@H](Cc1ccc(O)cc1)C(=O)N[C@@H](C)C(=O)N[C@@H](C)C(=O)O :: 0.46
CC(C)[C@H](N)C(=O)N[C@@H](Cc1c[nH]c2ccccc12)C(=O)N[C@@H](C)C(=O)N[C@@H](C)C(=O)N[C@@H](CCCCN)C(=O)O (H-VWAAK-OH) :: 0.04
C[C@H](NC(=O)[C@H](Cc1c[nH]c2ccccc12)NC(=O)[C@H](CCCCN)NC(=O)[C@@H](N)CCCN=C(N)N)C(=O)N1CCC[C@H]1C(=O)O (H-RKWAP-OH) :: 1.98
CC(C)[C@H](N)C(=O)N[C@@H](CCC(=O)O)C(=O)N[C@@H](C)C(=O)N[C@@H](C)C(=O)N1CCC[C@H]1C(=O)O (H-VEAAP-OH) :: 0.18

Working through the 2 compounds below one at a time, give Log RAI for each.
1. C[C@H](NC(=O)[C@H](Cc1c[nH]c2ccccc12)NC(=O)[C@H](CCCCN)NC(=O)[C@@H](N)CCC(=O)O)C(=O)N1CCC[C@H]1C(=O)O (H-EKWAP-OH)
2. CC(C)C[C@H](N)C(=O)N[C@@H](CCC(=O)O)C(=O)N[C@@H](C)C(=O)N[C@@H](C)C(=O)N[C@@H](CCCCN)C(=O)O (H-LEAAK-OH)

[out]
1: 1.3; 2: 0.4

Working through the 3 compounds below one at a time, give Log RAI for each.
1. CC(C)[C@H](N)C(=O)N[C@@H](CCC(=O)O)C(=O)N[C@@H](CO)C(=O)N[C@@H](C)C(=O)N[C@@H](CCCCN)C(=O)O (H-VESAK-OH)
2. CC(C)[C@H](N)C(=O)N[C@@H](CCCCN)C(=O)N[C@@H](Cc1c[nH]c2ccccc12)C(=O)N[C@@H](C)C(=O)N1CCC[C@H]1C(=O)O (H-VKWAP-OH)
3. CC(C)[C@H](N)C(=O)N[C@@H](CCC(=O)O)C(=O)NCC(=O)NCC(=O)N[C@@H](CCCCN)C(=O)O (H-VEGGK-OH)

[out]
[0.28, 2.35, -1]

Working through the 3 compounds below one at a time, give Log RAI for each.
1. CC(C)[C@H](N)C(=O)N[C@@H](CCC(=O)O)C(=O)N[C@@H](Cc1c[nH]c2ccccc12)C(=O)N[C@H](C(=O)N[C@@H](CCCCN)C(=O)O)C(C)C (H-VEWVK-OH)
2. CC(C)[C@H](N)C(=O)N[C@@H](CCCCN)C(=O)N[C@@H](C)C(=O)N[C@@H](C)C(=O)N[C@@H](CCCCN)C(=O)O (H-VKAAK-OH)
3. CC(C)[C@H](N)C(=O)N[C@@H](CCC(=O)O)C(=O)N[C@@H](CO)C(=O)N[C@@H](CO)C(=O)N[C@@H](CCCCN)C(=O)O (H-VESSK-OH)

[out]
1.71
0.11
0
